System: Plasmodium falciparum
Assay: Confirmatory screen in NF54 pLDH assay, in single point, at 2uM, 72h
Type: functional, Erythrocyte
Conditions: timepoint 72 hour
Hit rate of the full screen: of about 4,800 compounds, about 410 (8.5%) showed an effect of 50% or more. This excerpt belongs to a sample that is enriched for strong results.
Please provide measured % Inhibition for the entries that follow.
The figure you give is taken to be in %; do not add the unit.

Inquiry: Tell me the measured % Inhibition of O=C(Nc1ccc2c(c1)OCCCO2)c1ccsc1 , please.
Reply text: 5

Inquiry: Lookup COc1ccc(NC(=O)Cn2cnc3nc(N4CCOCC4)ncc3c2=O)cc1
Reply text: 15

Inquiry: Lookup CCn1ncc2ccc(N[C@@H](C)C3(O)CCOCC3)cc21
Reply text: 12

Inquiry: Lookup CCN1c2cc(C)ccc2-n2cccc2C12CCNCC2
Reply text: -7

Inquiry: Lookup CC(C)c1nnc(CNc2ccc(C#N)cc2)o1
Reply text: 8

Inquiry: Lookup O=C(Nc1ccc(F)cc1)c1c(-c2ccc(Cl)cc2)nc2n1CCS2(=O)=O
Reply text: -4

Inquiry: Lookup CCN1CCN(C2CCN(c3ncc(F)c(OC)n3)CC2)CC1
Reply text: 50

Inquiry: Lookup Cn1cc(CN2CCC(C(=O)NCCCN3CCCCC3)CC2)c2cc(Cl)ccc21
Reply text: -8

Inquiry: Lookup O=C(NCCCN1CCOCC1)c1ccc(-c2cnc(NC3CCCCC3)nc2)cc1
Reply text: -15

Inquiry: Lookup COc1nc(N2[C@@H]3CC[C@H]2C[C@@H](OC)C3)ncc1F
Reply text: 52

Inquiry: Lookup CN(C)c1ccc(NN=C2N=NN=N2)cc1
Reply text: 3

====

Test system: Plasmodium falciparum
Test: Confirmatory screen in NF54 pLDH assay, in single point, at 2uM, 72h
Format: functional, Erythrocyte
Settings: timepoint 72 hour
In all, about 4,800 compounds went through this assay and about 410 (8.5%) showed an effect of 50% or more. The sample as a whole holds a higher share of strong results than the screen did.
PARAMETER: % Inhibition (%)
The figure you give is taken to be in %; do not add the unit.

Inquiry: Tell me the measured % Inhibition of O=S(=O)(c1cccc(Cl)c1)N1CCc2nc(N3CCCCC3)nc(Oc3ccccc3)c2C1 , please.
Reply text: 78

Inquiry: Lookup CC1CCN(c2nc3c(c(Oc4cccc(F)c4)n2)CN(Cc2ccccn2)CC3)CC1
Reply text: 21

Inquiry: Lookup CC(=O)c1ccc(NC(=O)Cn2c(-c3ccccc3)nc(C)cc2=O)cc1
Reply text: 10

Inquiry: Lookup COc1ccc(CN2CCC(C(=O)NCCCN3CCOCC3)CC2)c(OC)c1
Reply text: 9

Inquiry: Lookup O=C(NC[C@H]1CCCO1)c1cc(C(=O)C2CC2)c[nH]1
Reply text: -8

Inquiry: Lookup CC(=O)Nc1ccc(NC(=O)CCC(C)C)cc1
Reply text: -6

Inquiry: Lookup CC(C)C(C(=O)O)N1Cc2c(cc(O)c3c2OC2(C3)C(C)CCC3C(C)(C)C(O)CCC32C)C1=O (stereo not given)
Reply text: 5

Inquiry: Lookup COC(=O)C1C2CCC(C2)C1NC(=O)c1ccncc1 (stereo not given)
Reply text: 2

Inquiry: Lookup CCCN(CCC)CCN1C(=O)[C@@H]2C(C(=O)Nc3cc(Cl)cc(Cl)c3)[C@@H]3C=C[C@]2(O3)C1C(=O)NC1CCCCC1 (stereo not given in full)
Reply text: 50

Inquiry: Lookup O=C(Nc1cccc(C(F)(F)F)c1)C(Oc1ccccc1)Oc1ccccc1
Reply text: -19

====

System: Plasmodium falciparum
Assay: Confirmatory screen in NF54 pLDH assay, in single point, at 2uM, 72h
Assay type: functional, Erythrocyte
Details: timepoint 72 hour
The whole screen tested about 4,800 compounds, of which about 410 (8.5%) showed an effect of 50% or more. What follows is part of a selection rich in strong results, with near analogues and random picks from the rest.
PARAMETER: % Inhibition (%)
The figure you give is taken to be in %; do not add the unit.

Inquiry: Tell me the measured % Inhibition of COc1ccc(C(=O)N2CC[C@H](c3nc(C4CCOCC4)no3)C2)cc1OC , please.
Reply text: 11

Inquiry: Lookup CN(C)c1ccc2c(c1)CN(C(=O)c1ccccc1S(C)(=O)=O)CC2
Reply text: -5

Inquiry: Lookup CCc1ccc(NC(=O)c2c(C)sc3ncnc(N4CCCCC4)c23)cc1
Reply text: 12

Inquiry: Lookup Cc1cc(NCCc2nccn2C)ncn1
Reply text: -4

Inquiry: Lookup Cc1cc(C)c(C(=O)O)cc1NC(=O)c1oc(C2CC2)nc1C
Reply text: -8

Inquiry: Lookup CN1CCN(c2nc(O)c3c(n2)NC(=O)C[C@H]3c2c(F)cccc2F)CC1
Reply text: 0

Inquiry: Lookup O=C1c2cc3ccccc3n2C[C@](C(=O)NC2CCCCCCC2)(c2ccccc2)N1Cc1cccc(Cl)c1
Reply text: -5

Inquiry: Lookup Cc1ccn(-c2ccc(C(=O)NC3CCCC3)cn2)n1
Reply text: -9

Inquiry: Lookup Cc1nn(-c2ncc(C(F)(F)F)cc2Cl)c(=O)n1-c1ccc(OCc2ccccc2)cc1
Reply text: -12

Inquiry: Lookup CN1c2cc(C(=O)N3CCN(c4ccccc4Cl)CC3)ccc2C(=O)N2CCCC[C@H]21
Reply text: 5

Inquiry: Lookup CN1CCC[C@H](C(=O)Nc2nc(C3CC3)cs2)C1
Reply text: -2

Inquiry: Lookup CCCCCn1c(NCc2cc(Cl)ccc2O)nc2ccccc21
Reply text: 21

Inquiry: Lookup Cc1ccccc1[C@H]1CC(=O)Nc2c1c(C)nn2-c1nncc(-c2ccc(Cl)cc2)n1
Reply text: 15

Inquiry: Lookup CC1CCCCC1NC(=O)CN1CCN(Cc2cccc(Cl)c2)C1=O (centres undefined)
Reply text: -4

Inquiry: Lookup Cc1ccc(C(=O)Nc2c(C(N)=O)sc3nc(C(F)F)cc(C4CC4)c23)cc1
Reply text: -9

Inquiry: Lookup O=C(NCCCc1ccccc1)[C@H]1CCCN(c2nc3ccccc3[nH]2)C1
Reply text: -4

Inquiry: Lookup Cc1ccc(C(=O)N2CC(n3cnnc3C)C2)cc1F
Reply text: -17

Inquiry: Lookup CN(CC(=O)Nc1ccccc1C(F)(F)F)C1CNC1
Reply text: 8

Inquiry: Lookup O=C(CN1CCCC1)N1CCCN(S(=O)(=O)c2ccccc2)[C@H]1c1ccccc1
Reply text: -2

Inquiry: Lookup COc1ccc2cc3n(c2c1)C[C@@](C)(C(=O)NC1CCCC1)N(Cc1ccc(F)cc1)C3=O
Reply text: 13

Inquiry: Lookup CC1CN(CCCNC(=O)Cc2c[nH]c3ccc(F)cc23)CC(C)O1 (centres undefined)
Reply text: -4

Inquiry: Lookup CCCOc1cc(=O)c(C(=O)N2CCCC2)nn1-c1ccc(C)cc1
Reply text: 0

Inquiry: Lookup CC(C)(C)C(=O)/C(=N\OC(=O)Nc1ccc(Cl)cc1)n1cncn1
Reply text: 0

Inquiry: Lookup Cc1nn(C)c(NC(=O)c2ccc(C(C)(C)C)cc2)c1C1=CCCCC1
Reply text: -5

Inquiry: Lookup CC(C(=O)Nc1nccs1)N1CCCC(c2ccn[nH]2)C1 (centres undefined)
Reply text: 45

Inquiry: Lookup CCc1ccc(/C=C/c2c[nH]c3ccccc23)[n+](CC)c1
Reply text: 88

Inquiry: Lookup CC(C)c1cc(=O)[nH]c(-n2nc(C3CC3)cc2NC(=O)c2ccc(F)cc2)n1
Reply text: 89

Inquiry: Lookup O=C1C[C@@H](c2cccc(Br)c2)c2c(O)nc(N3CCOCC3)nc2N1
Reply text: -7

Inquiry: Lookup O=C(O)C1CCC(=O)N(C2CC2)C1c1ccccc1 (centres undefined)
Reply text: 10

Inquiry: Lookup c1ccc(CNc2ncnc3c2cnn3-c2ccccn2)cc1
Reply text: 7

Inquiry: Lookup O=C(N[C@H]1CC12CC2)c1ccncc1F
Reply text: -22

Inquiry: Lookup Cc1cccc(N2C(=O)C3CC3C2=O)c1 (centres undefined)
Reply text: 8

Inquiry: Lookup CCCn1ccnc1-c1cn(Cc2cc3ccccc3[nH]2)nn1
Reply text: 54

Inquiry: Lookup Cc1ccc(S(=O)(=O)N2CCCC(=O)c3ccccc32)cc1
Reply text: 0

Inquiry: Lookup CC(C)(C)c1ccc(C(=O)N[C@H]2CCCC[C@@H]2NC(=O)c2ccc(C(C)(C)C)cc2)cc1
Reply text: 2

Inquiry: Lookup Cc1ccc(NC(=N)NC2=N[C@@H](CC(=O)Nc3cccc(C(F)(F)F)c3)C(=O)N2)cc1
Reply text: -10

Inquiry: Lookup CC(C)(C)OC(=O)Nc1cccc(N)n1
Reply text: 8

Inquiry: Lookup CC(C)(C)OC(=O)NC1CCN(c2ncc(C(=O)NCc3ccc(F)c(Cl)c3)c(N)n2)CC1
Reply text: -10

Inquiry: Lookup COc1nc(-c2cccc(C(=O)NCC3CCOCC3)c2)ncc1F
Reply text: 80

Inquiry: Lookup COc1ccc(-c2noc(Cn3c(=O)c4ccccc4n(CC(=O)NCCc4ccc(OC)c(OC)c4)c3=O)n2)cc1
Reply text: 6

Inquiry: Lookup COc1ccc(C(=O)N(CCO)CCN2CCOCC2)c(OC2CCCC2)c1
Reply text: 11

Inquiry: Lookup Cc1nnc(N2CC[C@H](c3nnc[nH]3)C2)s1
Reply text: 4

Inquiry: Lookup O[C@@H](CNCc1ccsc1C(F)(F)F)c1cc(Cl)c2c(c1)OCCO2
Reply text: 29

Inquiry: Lookup CC(C)(C)c1noc(OCc2cccc(C#N)c2)n1
Reply text: 14
